Where do the numbers come from? From ChEMBL document CHEMBL1141125.

Listed molecules paired with reported IC50
Sequence of the target: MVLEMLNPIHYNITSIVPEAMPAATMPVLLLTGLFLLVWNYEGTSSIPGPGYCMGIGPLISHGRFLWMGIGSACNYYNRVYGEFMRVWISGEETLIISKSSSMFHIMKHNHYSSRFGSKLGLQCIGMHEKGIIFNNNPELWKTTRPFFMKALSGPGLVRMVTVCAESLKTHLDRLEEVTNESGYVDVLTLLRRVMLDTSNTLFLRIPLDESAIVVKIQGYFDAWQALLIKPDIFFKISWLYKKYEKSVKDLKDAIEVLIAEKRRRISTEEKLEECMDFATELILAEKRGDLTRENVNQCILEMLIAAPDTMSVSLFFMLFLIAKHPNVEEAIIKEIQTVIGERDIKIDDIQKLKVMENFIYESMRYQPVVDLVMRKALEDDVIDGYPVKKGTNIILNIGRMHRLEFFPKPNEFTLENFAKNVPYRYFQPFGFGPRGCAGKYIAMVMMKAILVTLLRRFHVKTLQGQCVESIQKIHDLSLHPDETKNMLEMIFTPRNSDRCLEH
readout.name: IC50

- N#Cc1ccc2cc(-c3cccnc3)ccc2c1: > 36 µM
- Brc1ccc2cc(-c3cccnc3)ccc2c1: > 36 µM

###

measured.target: Steroid 17-alpha-hydroxylase/17,20 lyase (Homo sapiens)
Sequence (P05093 whole entry): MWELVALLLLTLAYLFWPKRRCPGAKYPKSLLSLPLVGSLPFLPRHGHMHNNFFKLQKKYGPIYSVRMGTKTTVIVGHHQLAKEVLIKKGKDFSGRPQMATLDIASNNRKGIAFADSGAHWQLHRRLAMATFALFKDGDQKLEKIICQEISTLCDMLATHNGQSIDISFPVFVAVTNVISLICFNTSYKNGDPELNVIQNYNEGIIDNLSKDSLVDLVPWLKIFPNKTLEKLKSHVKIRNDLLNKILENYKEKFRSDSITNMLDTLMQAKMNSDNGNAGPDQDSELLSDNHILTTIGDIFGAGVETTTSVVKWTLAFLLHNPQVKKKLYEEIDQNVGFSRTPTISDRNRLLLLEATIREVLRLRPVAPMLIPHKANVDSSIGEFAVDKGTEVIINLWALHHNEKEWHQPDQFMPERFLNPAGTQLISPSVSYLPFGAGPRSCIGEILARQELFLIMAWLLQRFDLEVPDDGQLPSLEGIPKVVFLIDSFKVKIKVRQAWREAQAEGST
method: Percent inhibition against recombinant human cytochrome P450 17A1 using progesterone
Parameters: concentration or dose not given beside the values
A collection of compounds and their measured Inhibition
readout.name: Inhibition (%)

- N#Cc1ccc2cc(-c3cccnc3)ccc2c1: 73
- COc1ccc2ccc(-c3cccnc3)c(Cl)c2c1: 94
- COc1ccc2cc(-c3cccnc3)ccc2c1: 72
- COc1ccc2c(Cl)c(-c3cccnc3)ccc2c1Cl: 83
- N#Cc1ccc(C2CCCc3cncn32)cc1 (stereo not given): 5

###

measured.target: UniProt P19099
Sequence (P19099 whole entry): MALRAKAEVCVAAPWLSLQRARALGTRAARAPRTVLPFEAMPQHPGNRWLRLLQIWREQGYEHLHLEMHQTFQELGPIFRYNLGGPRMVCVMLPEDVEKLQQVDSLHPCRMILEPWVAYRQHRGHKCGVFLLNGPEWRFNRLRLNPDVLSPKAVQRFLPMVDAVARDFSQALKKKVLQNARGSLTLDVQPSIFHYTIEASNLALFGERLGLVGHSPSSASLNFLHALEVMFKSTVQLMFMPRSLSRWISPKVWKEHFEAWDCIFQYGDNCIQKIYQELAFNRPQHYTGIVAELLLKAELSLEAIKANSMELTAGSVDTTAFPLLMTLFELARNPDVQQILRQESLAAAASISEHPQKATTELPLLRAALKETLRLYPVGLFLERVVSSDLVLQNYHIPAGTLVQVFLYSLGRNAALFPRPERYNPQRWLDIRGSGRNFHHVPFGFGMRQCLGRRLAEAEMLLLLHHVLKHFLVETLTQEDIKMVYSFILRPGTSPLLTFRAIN
method: Inhibitory concentration against human cytochrome P450 11B2 expressed in V79 MZh hamster lung fibroblasts, incubated with [14C]deoxycorticosterone
readout.name: IC50 (nM)

• c1ccc2cc(-c3cnc[nH]3)ccc2c1 = 296
• COc1cc2ccccc2cc1-n1ccnc1 = 19
• c1ccc2cc(-n3ccnc3)ccc2c1 = 39
• COc1ccc2cc(-n3ccnc3)ccc2c1 = 218
• c1ccc2ncc(-n3ccnc3)cc2c1 = 604
• c1ccc2cc(-c3cnco3)ccc2c1 = 12
• COC(=O)c1ccc2cc(-c3cccnc3)ccc2c1 = 72
